Listing of entries alongside the reported pIC50.
Molecular target: PD-L1/PD-1 complex formation (Homo sapiens, UniProt Q9NZQ7)
Sequence (Q9NZQ7 19-239 limits assumed, one chain of several): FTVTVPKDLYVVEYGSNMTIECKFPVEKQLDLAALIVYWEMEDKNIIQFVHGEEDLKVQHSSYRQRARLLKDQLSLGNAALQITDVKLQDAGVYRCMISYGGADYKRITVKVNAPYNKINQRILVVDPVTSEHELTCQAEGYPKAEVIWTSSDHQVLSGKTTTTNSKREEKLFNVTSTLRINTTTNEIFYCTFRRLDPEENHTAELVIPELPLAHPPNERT
Assay: PD-L1/PD-1 Interaction Assay (ELISA platform)
Conditions: human PD-1-Fc coated plates, PD-L1-Fc-biotin 0.1 μg/ml, compounds pre-incubated 2 hours
pIC50: −log10 of the molar value. Structures can show the parent of a compound that is named as a salt.

Cc1c(COc2ccc(CNC(C)(C)C(=O)O)cc2Br)cccc1-c1cccc(COc2ccc(CNC(C)(C)C(=O)O)cc2Br)c1C [Example 14, di-trifluoroacetic acid salt]: 8.00 to 10.00
Cc1c(COc2ccc(CN3CCCC[C@H]3C(=O)O)cc2Cl)cccc1-c1cccc(COc2ccc(CN3CCCC[C@H]3C(=O)O)cc2Cl)c1C: 7.00 to 7.96
Cc1c(COc2ccc(CN(CC(=O)O)CC(=O)O)cc2Br)cccc1-c1cccc(COc2ccc(CN(CC(=O)O)CC(=O)O)cc2Br)c1C [Example 30, di-trifluoroacetic acid salt]: 6.00 to 6.96

Enter reported pIC50 observed with PD-L1/PD-1 complex formation (Homo sapiens, UniProt Q9NZQ7) for Cc1c(COc2ccc(CN[C@@H](C)C(=O)O)cc2Br)cccc1-c1cccc(COc2ccc(CN[C@@H](C)C(=O)O)cc2Br)c1C [Example 15, di-trifluoroacetic acid salt]
8.00 to 10.00

Then what about the compound Cc1c(COc2ccc(CN3C[C@@H](O)C[C@H]3C(=O)O)cc2Br)cccc1-c1cccc(COc2ccc(CN3C[C@@H](O)C[C@H]3C(=O)O)cc2Br)c1C ?
8.00 to 10.00

----------
Structures can show the parent of a compound that is named as a salt.
Listing of entries alongside the reported melting point.

Cc1c(COc2ccc(CN3CCCC[C@H]3C(=O)O)cc2Br)cccc1-c1cccc(COc2ccc(CN3CCCC[C@H]3C(=O)O)cc2Br)c1C: 222 to 226 °C
O=C(O)[C@@H]1CCCCN1Cc1ccc(OCc2cccc(-c3cccc(COc4ccc(CN5CCCC[C@H]5C(=O)O)cc4Br)c3)c2)c(Br)c1: 306 to 310 °C
Cc1c(COc2ccc(CN[C@H](C)C(=O)O)cc2Br)cccc1-c1cccc(COc2ccc(CN[C@H](C)C(=O)O)cc2Br)c1C (as salt: trifluoroacetic acid salt) [Example 16, di-trifluoroacetic acid salt]: 186 to 190 °C

Entry Cc1c(COc2ccc(CNC(C)(C)C(=O)O)cc2Br)cccc1-c1cccc(COc2ccc(CNC(C)(C)C(=O)O)cc2Br)c1C (as salt: trifluoroacetic acid salt) [Example 14, di-trifluoroacetic acid salt] has what melting point?
230 to 234 °C

Then what about the molecule Cc1c(COc2ccc(CN3CCCC[C@H]3C(=O)O)cc2O)cccc1-c1cccc(COc2ccc(CN3CCCC[C@H]3C(=O)O)cc2O)c1C ?
143 to 147 °C

Then what about the molecule Cc1c(COc2ccc(CNC(CO)CO)cc2Br)cccc1-c1cccc(COc2ccc(CNC(CO)CO)cc2Br)c1C (as salt: trifluoroacetic acid salt) [Example 32, di-trifluoroacetic acid salt] ?
148 to 152 °C

Then what about the molecule O=C(O)[C@@H]1CCCCN1Cc1ccc(OCc2cccc(-c3cccc(COc4ccc(CN5CCCC[C@H]5C(=O)O)cc4Br)c3Cl)c2Cl)c(Br)c1 ?
184 to 188 °C

Then what about the molecule Cc1c(COc2ccc(CN3CCCC[C@H]3C(=O)O)cc2Cl)cccc1-c1cccc(COc2ccc(CN3CCCC[C@H]3C(=O)O)cc2Cl)c1C ?
184 to 188 °C

Then what about the molecule CSc1cc(CN2CCCC[C@H]2C(=O)O)ccc1OCc1cccc(-c2cccc(COc3ccc(CN4CCCC[C@H]4C(=O)O)cc3SC)c2C)c1C (as salt: trifluoroacetic acid salt) [Example 28, di-trifluoroacetic acid salt] ?
134 to 138 °C

Then what about the molecule Cc1c(COc2ccc(CN[C@H](CO)C(=O)O)cc2Br)cccc1-c1cccc(COc2ccc(CN[C@H](CO)C(=O)O)cc2Br)c1C (as salt: trifluoroacetic acid salt) [Example 17, di-trifluoroacetic acid salt] ?
156 to 160 °C

Then what about the molecule Cc1c(COc2ccc(CN(CC(=O)O)CC(=O)O)cc2Br)cccc1-c1cccc(COc2ccc(CN(CC(=O)O)CC(=O)O)cc2Br)c1C (as salt: trifluoroacetic acid salt) [Example 30, di-trifluoroacetic acid salt] ?
223 to 227 °C

Then what about the molecule Cc1c(COc2ccc(CN3CCCC[C@H]3C(=O)O)cc2C#N)cccc1-c1cccc(COc2ccc(CN3CCCC[C@H]3C(=O)O)cc2C#N)c1C (as salt: trifluoroacetic acid salt) [Example 34, di-trifluoroacetic acid salt] ?
196 to 200 °C

Then what about the molecule Cc1c(COc2ccc(CN3C[C@@H](O)C[C@H]3C(=O)O)cc2Br)cccc1-c1cccc(COc2ccc(CN3C[C@@H](O)C[C@H]3C(=O)O)cc2Br)c1C ?
260 to 264 °C

----------
Listing of entries alongside the reported pIC50.
Molecular target: PD-L1/PD-1 complex formation (Homo sapiens)
Construct: purchased BPS Bioscience
Assay: PD-L1/PD-1 Interaction Assay (ELISA platform)
Type: binding
Conditions: human PD-1-Fc coated plates, PD-L1-Fc-biotin 0.1 μg/ml, compounds pre-incubated 2 hours
pIC50: −log10 of the molar value. Where a name gives a salt, the structure may show the parent alone.

Here is how some compounds turned out for pIC50.
Cc1c(COc2ccc(CN3CCCC[C@H]3C(=O)O)cc2F)cccc1-c1cccc(COc2ccc(CN3CCCC[C@H]3C(=O)O)cc2F)c1C: 6.00 to 6.96
Cc1c(COc2ccc(CN3CCCC[C@H]3C(=O)O)cc2C(F)F)cccc1-c1cccc(COc2ccc(CN3CCCC[C@H]3C(=O)O)cc2C(F)F)c1C [Example 29, di-trifluoroacetic acid salt]: 8.00 to 10.00
O=C(O)[C@@H]1CCCCN1Cc1ccc(OCc2cccc(-c3cccc(COc4ccc(CN5CCCC[C@H]5C(=O)O)cc4Br)c3)c2)c(Br)c1: 4.52 to 6.00
Cc1c(COc2ccc(CN[C@@H](C(=O)O)[C@H](C)O)cc2Br)cccc1-c1cccc(COc2ccc(CN[C@@H](C(=O)O)[C@H](C)O)cc2Br)c1C [Example 18, di-trifluoroacetic acid salt]: 8.00 to 10.00

Continue with the compound presented below.
Enter reported pIC50 observed with PD-L1/PD-1 complex formation (Homo sapiens) for Cc1cc(CN2CCCC[C@H]2C(=O)O)ccc1OCc1cccc(-c2cccc(COc3ccc(CN4CCCC[C@H]4C(=O)O)cc3C)c2C)c1C
7.00 to 7.96

----------
Target: PD-L1/PD-1 complex formation (Homo sapiens, UniProt Q9NZQ7)
Assay: PD-L1/PD-1 Interaction Assay (ELISA platform)
Conditions: human PD-1-Fc coated plates, PD-L1-Fc-biotin 0.1 μg/ml, compounds pre-incubated 2 hours
Structures can show the parent of a compound that is named as a salt.
PROPERTY LABEL: IC50

O=C(O)[C@@H]1CCCCN1Cc1ccc(OCc2cccc(-c3cccc(COc4ccc(CN5CCCC[C@H]5C(=O)O)cc4Br)c3F)c2F)c(Br)c1: 110 to 1000 nM
Cc1c(COc2ccc(CN[C@H](CO)C(=O)O)cc2Br)cccc1-c1cccc(COc2ccc(CN[C@H](CO)C(=O)O)cc2Br)c1C [Example 17, di-trifluoroacetic acid salt]: 0.1 to 10 nM
Cc1c(COc2ccc(CN3CCCC[C@H]3C(=O)O)cc2Br)cccc1-c1cccc(COc2ccc(CN3CCCC[C@H]3C(=O)O)cc2Br)c1C: 0.1 to 10 nM

Enter reported IC50 observed with PD-L1/PD-1 complex formation (Homo sapiens, UniProt Q9NZQ7) for Cc1c(COc2ccc(CN3CCCC[C@H]3C(=O)NCCN(C)C)cc2Br)cccc1-c1cccc(COc2ccc(CN3CCCC[C@H]3C(=O)NCCN(C)C)cc2Br)c1C
1010 to 30000 nM

Then what about the compound Cc1c(COc2ccc(CN(CCO)CCO)cc2Br)cccc1-c1cccc(COc2ccc(CN(CCO)CCO)cc2Br)c1C [Example 31, di-trifluoroacetic acid salt] ?
11 to 100 nM

Then what about the compound COc1nc(OCc2cccc(-c3cccc(COc4ccc(CNCCNC(C)=O)c(OC)n4)c3C)c2C)ccc1CNCCNC(C)=O ?
11 to 100 nM

Then what about the compound Cc1c(COc2ccc(CN3CCCC[C@H]3C(N)=O)cc2Br)cccc1-c1cccc(COc2ccc(CN3CCCC[C@H]3C(N)=O)cc2Br)c1C ?
1010 to 30000 nM

----------
Listing of entries alongside the reported melting point.
Where a name gives a salt, the structure may show the parent alone.

Entry Cc1c(COc2ccc(CN[C@@H](C)C(=O)O)cc2Br)cccc1-c1cccc(COc2ccc(CN[C@@H](C)C(=O)O)cc2Br)c1C (as salt: trifluoroacetic acid salt) [Example 15, di-trifluoroacetic acid salt] has what melting point?
243 to 247 °C

Then what about the compound Cc1c(COc2ccc(CN[C@@H](C(=O)O)[C@H](C)O)cc2Br)cccc1-c1cccc(COc2ccc(CN[C@@H](C(=O)O)[C@H](C)O)cc2Br)c1C (as salt: trifluoroacetic acid salt) [Example 18, di-trifluoroacetic acid salt] ?
227 to 231 °C

Then what about the compound Cc1c(COc2ccc(CNCCO)cc2Br)cccc1-c1cccc(COc2ccc(CNCCO)cc2Br)c1C (as salt: trifluoroacetic acid salt) [Example 5, di-trifluoroacetic acid salt] ?
136 to 140 °C

Then what about the compound Cc1c(COc2ccc(CN(CCO)CCO)cc2Br)cccc1-c1cccc(COc2ccc(CN(CCO)CCO)cc2Br)c1C (as salt: trifluoroacetic acid salt) [Example 31, di-trifluoroacetic acid salt] ?
118 to 122 °C
